FYI, the data here is from patent US11298363B2.

# TEST TARGET: human vasopressin V1a receptor (Homo sapiens, UniProt P37288)
# Sequence (P37288 whole entry): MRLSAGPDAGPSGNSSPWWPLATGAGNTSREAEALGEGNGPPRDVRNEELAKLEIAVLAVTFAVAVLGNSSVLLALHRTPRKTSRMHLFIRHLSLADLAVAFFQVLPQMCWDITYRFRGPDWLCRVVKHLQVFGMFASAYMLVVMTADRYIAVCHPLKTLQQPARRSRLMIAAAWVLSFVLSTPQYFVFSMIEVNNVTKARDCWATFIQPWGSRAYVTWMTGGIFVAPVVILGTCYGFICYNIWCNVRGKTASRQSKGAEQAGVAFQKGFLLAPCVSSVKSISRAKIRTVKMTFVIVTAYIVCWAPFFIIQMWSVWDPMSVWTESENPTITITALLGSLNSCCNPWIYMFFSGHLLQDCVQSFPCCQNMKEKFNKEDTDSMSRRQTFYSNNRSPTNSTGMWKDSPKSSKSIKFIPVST
# TEST DETAILS: Human vasopressin V1a receptor binding assay
# MEASUREMENT CONDITIONS: 1321N1 cell membranes, [3H]vasopressin; read-out: Ki (nM) on hV1a cell line
# Experimental: Human Vasopressin V1a Receptor Binding Assay Cells were suspended in preparative buffer (50 mM Tris, 1 mM EDTA, 0.1 mM PMSF) and homogenized with glass homogenizing potter. […] Non-specific binding values were determined in the presence of unlabeled 1.2×10^−6 M (Arg^8)-vasopressin. […] Finally, radioactivity was measured using MicroBeta^2 Microplate Counter (Perkin Elmer). During fitting, the asymptotes are not fixed. […] The KD is determined beforehand using the Scatchard curve.
OBSERVED PROPERTY: Ki (nM)

Known Ki results, listed for orientation:
>>> recorded_value("CCC[C@]1(OC)CC[C@H](c2nnc3n2-c2ccc(Cl)cc2CC2(C3)OCCO2)CC1")
0.5
>>> recorded_value("CC(C)NC1Cc2cc(Cl)ccc2-n2c(nnc2C2CC(F)(F)C2)C1 (stereo not shown)")
600

a = CS(=O)(=O)CCOC1Cc2cc(Cl)ccc2-n2c(nnc2[C@H]2CC[C@H](Oc3ccccn3)CC2)C1 (stereo partly shown)
b = Clc1ccc2c(c1)CC1(Cc3nnc(C4CCN(Cc5cccnc5)C4)n3-2)OCCO1 (stereo not shown)
Ask: From the items above, decide which of a and b has the lower Ki reading. Please identify the chosen entry by its label.
Reply: a
(a: 0.3 nM, b: 1.1 nM)

1 = CC(C)(C)OC(=O)NC1Cc2cc(C(F)(F)F)ccc2-n2c(nnc2[C@H]2CC[C@H](Oc3ccccn3)CC2)C1 (stereo partly shown)
2 = CO[C@@H]1Cc2cc(Cl)ccc2-n2c(nnc2[C@H]2CC[C@H](Oc3ccccn3)CC2)C1 (single isomer, unassigned)
Ask: Could you please tell me which of these two has the higher Ki: 1 or 2 ? Please identify the chosen entry by its label.
Reply: 1

a = N[C@H](C(=O)N[C@@H]1Cc2cc(Cl)ccc2-n2c(nnc2[C@H]2CC[C@H](Oc3ccccn3)CC2)C1)c1ccccc1
b = CN([C@H]1Cc2cc(Cl)ccc2-n2c(nnc2[C@H]2CC[C@H](Oc3ccccn3)CC2)C1)S(C)(=O)=O
c = CCN[C@@H]1Cc2cc(Cl)ccc2-n2c(nnc2[C@H]2CC[C@H](Oc3ccccn3)CC2)C1
d = Cc1ccc2c(c1)CC(NC(C)C)Cc1nnc([C@H]3CC[C@H](Oc4ccccn4)CC3)n1-2 (stereo partly shown)
Ask: Put the compounds in ascending order of Ki. Please list the labels according to the requested order.
Reply: c, b, d, a
